Target: HLA-A*03:01
Experiment: IEDB peptide-MHC binding, purified MHC/competitive/fluorescence; bounds were set here for any values at or beyond the usual limits of such assays
Settings: source organism: Sudan ebolavirus
endpointName: IC50 (µM)
Kindly answer with a numeric value in µM, unit omitted.

These recorded examples may help you get a feel for the data.
FLRATTELR = 26.1
KIDNNTFVR = 31.9
GFRSGVPPK = 3.79

Let us move to another entry and its IC50.
GIYTEGLMH yielded IC50 of 15.4

---

Molecular target: HLA-A*02:11
Test: IEDB peptide-MHC binding, purified MHC/direct/fluorescence; filed as Kd, often an IC50 or EC50 that approximates it; bounds were set here for any values at or beyond the usual limits of such assays
Settings: source organism: Orthohantavirus tulaense
endpointName: Kd

RRAYSGKQY yielded Kd of ≥ 20 µM

---

Molecular target: HLA-B*27:03
Assay: IEDB peptide-MHC binding, purified MHC/competitive/fluorescence; filed as Kd, often an IC50 or EC50 that approximates it; bounds were set here for any values at or beyond the usual limits of such assays
Conditions: source organism: Giardia lamblia ATCC 50803
endpointName: Kd

TMNSRYYLV yielded Kd of ≥ 20 µM

---

Biological target: HLA-A*68:02
Test: IEDB peptide-MHC binding, purified MHC/competitive/radioactivity; filed as Kd, often an IC50 or EC50 that approximates it; bounds were set here for any values at or beyond the usual limits of such assays
Settings: source organism: Hepatitis C virus (isolate Th580)
endpointName: Kd

VLSDFKTWL yielded Kd of ≥ 57.4 µM

---

Molecular target: HLA-B*58:01
Test: IEDB peptide-MHC binding, purified MHC/direct/fluorescence; filed as Kd, often an IC50 or EC50 that approximates it; bounds were set here for any values at or beyond the usual limits of such assays
Conditions: source organism: Pasteurella multocida
endpointName: Kd

VMLDWGIEL yielded Kd of ≥ 20 µM

---

Molecular target: HLA-A*30:02
Experiment: IEDB peptide-MHC binding, purified MHC/competitive/radioactivity; filed as Kd, often an IC50 or EC50 that approximates it; bounds were set here for any values at or beyond the usual limits of such assays
Settings: source organism: Dengue virus 1 Singapore/S275/1990
endpointName: Kd (µM)
Kindly answer with a numeric value in µM, unit omitted.

ESEMIIPKIY yielded Kd of 11.7

---

Molecular target: HLA-A*24:03
Assay: IEDB peptide-MHC binding, purified MHC/direct/fluorescence; filed as Kd, often an IC50 or EC50 that approximates it; bounds were set here for any values at or beyond the usual limits of such assays
Conditions: source organism: Salmonella enterica subsp. enterica serovar Typhimurium
endpointName: pKd
The meaning of pKd here: minus log10 of the concentration in molar units.

The reported pKd value, HLA-A*24:03, for RVNKGTGVK reads 6.36

---

Target: HLA-A*02:12
Assay: IEDB peptide-MHC binding, purified MHC/direct/fluorescence; filed as Kd, often an IC50 or EC50 that approximates it; bounds were set here for any values at or beyond the usual limits of such assays
Conditions: source organism: Orthohantavirus andesense
pKd: −log10 of the molar value.
endpointName: pKd

YLIPSVTSL yielded pKd of ≤ 4.70

---

Target: HLA-B*15:01
Experiment: IEDB peptide-MHC binding, purified MHC/competitive/fluorescence; filed as Kd, often an IC50 or EC50 that approximates it; bounds were set here for any values at or beyond the usual limits of such assays
Conditions: source organism: Escherichia coli 536
endpointName: Kd

YQAENSTAE yielded Kd of ≥ 5 µM

---

Target: HLA-B*07:02
Experiment: IEDB peptide-MHC binding, purified MHC/competitive/fluorescence; filed as Kd, often an IC50 or EC50 that approximates it; bounds were set here for any values at or beyond the usual limits of such assays
Details: source organism: Brucella canis ATCC 23365
endpointName: Kd

ETVWPFFYA yielded Kd of ≥ 5 µM

---

Target: HLA-B*08:01
Assay: IEDB peptide-MHC binding, purified MHC/direct/fluorescence; filed as Kd, often an IC50 or EC50 that approximates it; bounds were set here for any values at or beyond the usual limits of such assays
Details: source organism: Salmonella enterica subsp. enterica serovar Typhimurium str. LT2
endpointName: pKd
The meaning of pKd here: minus log10 of the concentration in molar units.

TMRLRSEVL yielded pKd of 7.66

---

Target: HLA-B*08:01
Assay: IEDB peptide-MHC binding, purified MHC/competitive/fluorescence; filed as Kd, often an IC50 or EC50 that approximates it; bounds were set here for any values at or beyond the usual limits of such assays
Conditions: source organism: Escherichia coli 536
pKd: −log10 of the molar value.
endpointName: pKd

YQAENSTAE yielded pKd of ≤ 5.30

---

Molecular target: HLA-A*01:01
Assay: IEDB peptide-MHC binding, purified MHC/direct/fluorescence; filed as Kd, often an IC50 or EC50 that approximates it; bounds were set here for any values at or beyond the usual limits of such assays
Settings: source organism: Pseudomonas aeruginosa UCBPP-PA14
pKd: −log10 of the molar value.
endpointName: pKd

The reported pKd value, HLA-A*01:01, for SPADERAVA reads ≤ 4.70

---

Target: HLA-B*07:02
Assay: IEDB peptide-MHC binding, purified MHC/competitive/radioactivity; filed as Kd, often an IC50 or EC50 that approximates it; bounds were set here for any values at or beyond the usual limits of such assays
Conditions: source organism: Dengue virus 2 Jamaica/1409/1983
Each record here notes measured pKd.
The meaning of pKd here: minus log10 of the concentration in molar units.

RFASALTAL = 6.49

Let us move to another entry and its pKd.
RVMVMVGATM yielded pKd of 7.21

---

Biological target: HLA-B*35:01
Assay: IEDB peptide-MHC binding, purified MHC/competitive/radioactivity; filed as Kd, often an IC50 or EC50 that approximates it; bounds were set here for any values at or beyond the usual limits of such assays
Conditions: source organism: Mammarenavirus whitewaterense
endpointName: Kd (µM)
Kindly answer with a numeric value in µM, unit omitted.

GPFEASWAI yielded Kd of 0.801

---

Biological target: HLA-B*07:02
Test: IEDB peptide-MHC binding, purified MHC/competitive/fluorescence; filed as Kd, often an IC50 or EC50 that approximates it; bounds were set here for any values at or beyond the usual limits of such assays
Details: source organism: Yersinia pestis Nepal516
pKd: −log10 of the molar value.
endpointName: pKd

EPLAVIASL yielded pKd of ≤ 4.70

---

Target: HLA-B*40:01
Assay: IEDB peptide-MHC binding, purified MHC/competitive/radioactivity; filed as Kd, often an IC50 or EC50 that approximates it; bounds were set here for any values at or beyond the usual limits of such assays
Conditions: source organism: Mammarenavirus guanaritoense
endpointName: Kd

PEFDWILGWT yielded Kd of ≥ 69.5 µM

---

Target: HLA-B*40:01
Experiment: IEDB peptide-MHC binding, purified MHC/direct/fluorescence; filed as Kd, often an IC50 or EC50 that approximates it; bounds were set here for any values at or beyond the usual limits of such assays
Conditions: source organism: Influenza A virus (A/Viet Nam/HN/2004(H5N1))
pKd: −log10 of the molar value.
endpointName: pKd

ERNEQGQTL yielded pKd of ≤ 4.70

---

Molecular target: HLA-A*11:01
Assay: IEDB peptide-MHC binding, purified MHC/competitive/radioactivity; filed as Kd, often an IC50 or EC50 that approximates it; bounds were set here for any values at or beyond the usual limits of such assays
Details: source organism: Dengue virus 1 Singapore/S275/1990
endpointName: Kd (µM)
Kindly answer with a numeric value in µM, unit omitted.

GLAMGIMILK yielded Kd of 0.0698

---

Target: HLA-B*39:01
Test: IEDB peptide-MHC binding, purified MHC/direct/fluorescence; filed as Kd, often an IC50 or EC50 that approximates it; bounds were set here for any values at or beyond the usual limits of such assays
Details: source organism: West Nile virus
endpointName: Kd (nM)
Kindly answer with a numeric value in nM, unit omitted.

AHYEEDVNL yielded Kd of 1700

---

Biological target: HLA-A*33:01
Test: IEDB peptide-MHC binding, purified MHC/competitive/radioactivity; filed as Kd, often an IC50 or EC50 that approximates it; bounds were set here for any values at or beyond the usual limits of such assays
Settings: source organism: Vaccinia virus WR
Each record here notes measured log10 Kd.
Field: value | Transform: log10 | Quantity: Kd | Unit: µM

NSYISNIIY = 1.07
YLTMKAIEK = 0.99
LIKKSDAKR = -0.27
GFMRFFQLLR = -1.06
GLSETGFMR = -0.81

The reported log10 Kd value, HLA-A*33:01, for VTFRERYSYK reads 0.39

---

Target: HLA-B*07:02
Assay: IEDB peptide-MHC binding, purified MHC/direct/fluorescence; filed as Kd, often an IC50 or EC50 that approximates it; bounds were set here for any values at or beyond the usual limits of such assays
Conditions: source organism: Corynebacterium efficiens
endpointName: Kd

VQLQEYDTY yielded Kd of ≥ 20 µM

Numbers sourced from the Immune Epitope Database (IEDB).
